Measured MFC, listed per entry for reference.
Tested on: P. ochrochloron
TEST PROTOCOL: Antifungal bioassay (MIC/MFC)
Assay type: cell-based
TEST SETTINGS: Penicillium ochrochloron; P.o. (P. ochrochloron)
RESULT TYPE: MFC

- COC(=O)c1[nH]c2ccccc2c1/C=C1\SC(=S)N(CCCCCC(=O)O)C1=O [Compound 1]: 8 µg/mL
- COC(=O)c1[nH]c2ccc(F)cc2c1/C=C1\SC(=S)N(C)C1=O [Compound 15]: 15 µg/mL
- CC(=O)N1CCN(c2ccc(OCC3COC(Cn4ccnc4)(c4ccc(Cl)cc4Cl)O3)cc2)CC1 (stereo not shown) [Ketoconazole, reference compound]: 3500 µg/mL
- COC(=O)c1[nH]c2ccc(F)cc2c1/C=C1\SC(=S)N(c2ccc(O)cc2)C1=O [Compound 10]: 15 µg/mL

====

Tested on: Trichoderma viride (IAM 5061)
TEST PROTOCOL: Antifungal bioassay (MIC/MFC)
Assay type: cell-based
TEST SETTINGS: Trichoderma viride, IAM5061; T.v. (T. viride); read-out: MIC
Measured MIC, listed per entry for reference.
RESULT TYPE: MIC (µg/mL)

• COC(=O)c1[nH]c2ccccc2c1/C=C1\SC(=S)N(C(C(=O)O)C(C)C)C1=O (centres unmarked) = 8
• CC(=O)N1CCN(c2ccc(OCC3COC(Cn4ccnc4)(c4ccc(Cl)cc4Cl)O3)cc2)CC1 (centres unmarked) [Ketoconazole, reference compound] = 1000
• COC(=O)c1[nH]c2ccccc2c1/C=C1\SC(=S)N(c2ccc(C(=O)O)cc2)C1=O = 8
• c1ccc(-c2ccc(C(c3ccccc3)n3ccnc3)cc2)cc1 (centres unmarked) [Bifonazole, reference compound] = 150
• COC(=O)c1[nH]c2ccccc2c1/C=C1\SC(=S)N(Cc2ccco2)C1=O = 4
• COC(=O)c1[nH]c2ccc(F)cc2c1/C=C1\SC(=S)N(c2ccc(O)cc2)C1=O = 4
• COC(=O)c1[nH]c2ccccc2c1/C=C1\SC(=S)N(CC(=O)O)C1=O = 8
• COC(=O)c1[nH]c2ccc(F)cc2c1/C=C1\SC(=S)N(N2CCOCC2)C1=O = 8

====

System: A. ochraceus
TEST PROTOCOL: Antifungal bioassay (MIC/MFC)
Format: cell-based
TEST SETTINGS: Aspergillus ochraceus; A.o. (A. ochraceus); read-out: MIC
RESULT TYPE: MIC (µg/mL)

• COC(=O)c1[nH]c2ccccc2c1/C=C1\SC(=S)N(CCC(=O)O)C1=O = 8
• CC(=O)N1CCN(c2ccc(OCC3COC(Cn4ccnc4)(c4ccc(Cl)cc4Cl)O3)cc2)CC1 (stereo not shown) [Ketoconazole, reference compound] = 250
• COC(=O)c1[nH]c2ccc(F)cc2c1/C=C1\SC(=S)N(CCCC(=O)O)C1=O = 4
• COC(=O)c1[nH]c2ccccc2c1/C=C1\SC(=S)N(CCCCCC(=O)O)C1=O = 8

====

Test system: Enterobacter cloacae (clinical isolate)
TEST PROTOCOL: Antibacterial microdilution (MIC/MBC)
Format: cell-based
TEST SETTINGS: Enterobacter cloacae; En.cl (En. cloacae)
Measured MBC, listed per entry for reference.
RESULT TYPE: MBC (µg/mL)

- COC(=O)c1[nH]c2ccccc2c1/C=C1\SC(=S)N(c2cccc(O)c2)C1=O [Compound 3]: 30
- COC(=O)c1[nH]c2ccc(F)cc2c1/C=C1\SC(=S)N(C(C(=O)O)C(C)C)C1=O (stereo not shown) [Compound 8]: 8
- COC(=O)c1[nH]c2ccccc2c1/C=C1\SC(=S)N(N2CCOCC2)C1=O [Compound 6]: 30
- COC(=O)c1[nH]c2ccccc2c1/C=C1\SC(=S)N(Cc2ccco2)C1=O [Compound 7]: 30

====

Measured melting point, listed per entry for reference.
RESULT TYPE: melting point

* COC(=O)c1[nH]c2ccc(F)cc2c1/C=C1\SC(=S)N(N2CCOCC2)C1=O | 273 to 274 °C
* COC(=O)c1[nH]c2ccccc2c1/C=C1\SC(=S)N(c2ccc(O)cc2)C1=O | 282 to 284 °C
* COC(=O)c1[nH]c2ccccc2c1/C=C1\SC(=S)N(CCCCCC(=O)O)C1=O | 135 to 138 °C
* COC(=O)c1[nH]c2cc(OC)ccc2c1/C=C1\SC(=S)N(c2cccc(F)c2)C1=O | 238 to 240 °C
* COC(=O)c1[nH]c2ccc(F)cc2c1/C=C1\SC(=S)N(CCC(=O)O)C1=O | 275 to 276 °C
* COC(=O)c1[nH]c2ccccc2c1/C=C1\SC(=S)N(CCC(=O)O)C1=O | 265 to 266 °C
* COC(=O)c1[nH]c2ccccc2c1/C=C1\SC(=S)N(c2ccc(C(=O)O)cc2)C1=O | 294 to 295 °C
* COC(=O)c1[nH]c2ccc(F)cc2c1/C=C1\SC(=S)N(C)C1=O | 234 to 244 °C

====

Tested on: Staphylococcus aureus (ATCC 6538)
TEST PROTOCOL: Antibacterial microdilution (MIC/MBC)
Assay type: cell-based
TEST SETTINGS: Staphylococcus aureus, ATCC6538; S.a. (S. aureus); read-out: MIC
Measured MIC, listed per entry for reference.
RESULT TYPE: MIC (µg/mL)

- COC(=O)c1[nH]c2ccc(F)cc2c1/C=C1\SC(=S)N(C)C1=O: 22
- [H]/N=C(/N)N[C@H]1[C@H](O)[C@@H](O)[C@H](O[C@@H]2O[C@@H](C)[C@](O)(C=O)[C@H]2O[C@@H]2O[C@@H](CO)[C@H](O)[C@@H](O)[C@@H]2NC)[C@@H](N/C(N)=N\[H])[C@@H]1O [Streptomycin, reference compound]: 100
- COC(=O)c1[nH]c2ccccc2c1/C=C1\SC(=S)N(CCCCCC(=O)O)C1=O: 22

====

Test system: M. flavus
TEST PROTOCOL: Antibacterial microdilution (MIC/MBC)
Type: cell-based
TEST SETTINGS: Micrococcus flavus; M.f. (M. flavus)
Measured MBC, listed per entry for reference.
RESULT TYPE: MBC

• [H]/N=C(/N)N[C@H]1[C@H](O)[C@@H](O)[C@H](O[C@@H]2O[C@@H](C)[C@](O)(C=O)[C@H]2O[C@@H]2O[C@@H](CO)[C@H](O)[C@@H](O)[C@@H]2NC)[C@@H](N/C(N)=N\[H])[C@@H]1O [Streptomycin, reference compound] = 300 µg/mL
• COC(=O)c1[nH]c2ccccc2c1/C=C1\SC(=S)N(c2ccc(O)cc2)C1=O = 60 µg/mL
• COC(=O)c1[nH]c2ccc(F)cc2c1/C=C1\SC(=S)N(C(C(=O)O)C(C)C)C1=O (stereo not drawn) = 60 µg/mL

====

Test system Penicillium funiculosum (ATCC 36839), MIC listed for each of the molecules.
RESULT TYPE: MIC (µg/mL)

* CC(=O)N1CCN(c2ccc(OCC3COC(Cn4ccnc4)(c4ccc(Cl)cc4Cl)O3)cc2)CC1 (centres unmarked) [Ketoconazole, reference compound] | 200
* COC(=O)c1[nH]c2ccccc2c1/C=C1\SC(=S)N(Cc2ccco2)C1=O | 15
* COC(=O)c1[nH]c2ccc(F)cc2c1/C=C1\SC(=S)N(c2ccc(O)cc2)C1=O | 8
* COC(=O)c1[nH]c2ccc(F)cc2c1/C=C1\SC(=S)N(CCCC(=O)O)C1=O | 15
* COC(=O)c1[nH]c2ccccc2c1/C=C1\SC(=S)N(CCCCCC(=O)O)C1=O | 15
* c1ccc(-c2ccc(C(c3ccccc3)n3ccnc3)cc2)cc1 (centres unmarked) [Bifonazole, reference compound] | 200
* COC(=O)c1[nH]c2ccccc2c1/C=C1\SC(=S)N(c2cccc(O)c2)C1=O | 8
* COC(=O)c1[nH]c2ccccc2c1/C=C1\SC(=S)N(c2ccc(O)cc2)C1=O | 15
* COC(=O)c1[nH]c2ccc(F)cc2c1/C=C1\SC(=S)N(CCC(=O)O)C1=O | 15
* COC(=O)c1[nH]c2ccc(F)cc2c1/C=C1\SC(=S)N(C)C1=O | 8
* COC(=O)c1[nH]c2ccc(F)cc2c1/C=C1\SC(=S)N(C(C(=O)O)C(C)C)C1=O (centres unmarked) | 15

====

Test system: P. ochrochloron
TEST PROTOCOL: Antifungal bioassay (MIC/MFC)
Assay type: cell-based
TEST SETTINGS: P.o. (P. ochrochloron; text: P. ochramensis)
Measured MIC, listed per entry for reference.
RESULT TYPE: MIC (µg/mL)

• COC(=O)c1[nH]c2ccccc2c1/C=C1\SC(=S)N(CCCCCC(=O)O)C1=O = 4
• COC(=O)c1[nH]c2ccc(F)cc2c1/C=C1\SC(=S)N(C)C1=O = 8
• COC(=O)c1[nH]c2ccccc2c1/C=C1\SC(=S)N(N2CCOCC2)C1=O = 8
• COC(=O)c1[nH]c2ccc(F)cc2c1/C=C1\SC(=S)N(c2ccc(O)cc2)C1=O = 8
• COC(=O)c1[nH]c2ccccc2c1/C=C1\SC(=S)N(Cc2ccco2)C1=O = 8
